These measurements were taken from patent US20230073512A1.

# Test system: Z-138
# PROCEDURE_SUMMARY: Cell proliferation of cancerous cell lines
# Type: cell-based
# ASSAY_SETUP: Homo sapiens; Z-138 cell line; read-out: Antineoplastic effect on cell proliferation, IC50
MEASURED_ENDPOINT: IC50

Tell me the measured IC50 of Cn1nnc(-c2ccc3c(c2)[nH]c2ncnc(NCCCN4CCCCC4)c23)n1 , please.
1 to 10 µM

====

# Tested on: AML samples
# PROCEDURE_SUMMARY: Cell proliferation of cancerous samples from patients
# ASSAY_SETUP: read-out: Antineoplastic effect on cell proliferation, IC50, AML sample 12H045
As shown below, each of these compounds has a reported IC50 value.

Cn1nnc(-c2ccc3c(c2)[nH]c2ncnc(NCCCN4CCCCC4)c23)n1 ... 1 to 10 µM

Turning now to a further compound:
Tell me the measured IC50 of COC(=O)c1ccc2[nH]c3nc(Cc4ccccc4)nc(NCCCN4CCCCC4)c3c2c1 , please.
1 to 10 µM

====

# PROCEDURE_SUMMARY: in vivo
# ASSAY_SETUP: mouse, iv, 1 mg/kg
MEASURED_ENDPOINT: Vd (L/kg)
Answer with a number only, understood to be in L/kg.

Tell me the measured Vd of Cn1nnc(-c2ccc3c(c2)[nH]c2ncnc(NCCCN4CCCCC4)c23)n1 , please.
14.3

====

# System: SKNO
# PROCEDURE_SUMMARY: Cell proliferation of cancerous cell lines
# Type: cell-based
# ASSAY_SETUP: SKNO cell line; read-out: Antineoplastic effect on cell proliferation, IC50
MEASURED_ENDPOINT: IC50

IC50 of Cn1nnc(-c2ccc3c(c2)[nH]c2ncnc(NCCCN4CCCCC4)c23)n1 [UM681] on SKNO?
1 to 10 µM

====

# PROCEDURE_SUMMARY: in vivo
# ASSAY_SETUP: mouse, po, 20 mg/kg
MEASURED_ENDPOINT: AUC (µM·h)
Answer with a number only, understood to be in µM·h.

Tell me the measured AUC of Cn1nnc(-c2ccc3c(c2)[nH]c2ncnc(NCCCN4CCCCC4)c23)n1 , please.
2.45

====

# System: AML samples
# PROCEDURE_SUMMARY: Cell proliferation of cancerous samples from patients
# ASSAY_SETUP: read-out: Antineoplastic effect on cell proliferation, IC50, AML sample 12H096
MEASURED_ENDPOINT: IC50

Cn1nnc(-c2ccc3c(c2)[nH]c2ncnc(NCCCN4CCCCC4)c23)n1 ... > 10 µM

Turning now to a further compound:
Tell me the measured IC50 of COC(=O)c1ccc2[nH]c3nc(Cc4ccccc4)nc(NCCCN4CCCCC4)c3c2c1 , please.
1 to 10 µM

====

# PROCEDURE_SUMMARY: PK assays in mice, intravenous and oral
# ASSAY_SETUP: read-out: maximal concentration (Cmax), orally administered at 20 mg/kg
MEASURED_ENDPOINT: Cmax (nM)
Answer with a number only, understood to be in nM.

Tell me the measured Cmax of COC(=O)c1ccc2c(c1)[nH]c1ncnc(NCCCN3CCCCC3)c12 , please.
200

====

# Test system: AML samples
# PROCEDURE_SUMMARY: Cell proliferation of cancerous samples from patients
# ASSAY_SETUP: read-out: Antineoplastic effect on cell proliferation, IC50, AML sample 07H151
pIC50: −log10 of the molar value.
As shown below, each of these compounds has a reported pIC50 value.

COC(=O)c1ccc2[nH]c3nc(Cc4ccccc4)nc(NCCCN4CCCCC4)c3c2c1 [UM134] ... 5.00 to 6.00

Turning now to a further compound:
Tell me the measured pIC50 of Cn1nnc(-c2ccc3c(c2)[nH]c2ncnc(NCCCN4CCCCC4)c23)n1 [UM681] , please.
< 5.00

====

# Tested on: AML samples
# PROCEDURE_SUMMARY: Cell proliferation of cancerous samples from patients
# ASSAY_SETUP: read-out: Antineoplastic effect on cell proliferation, IC50, AML sample 09H046
pIC50: −log10 of the molar value.
As shown below, each of these compounds has a reported pIC50 value.

Cn1nnc(-c2ccc3c(c2)[nH]c2ncnc(NCCCN4CCCCC4)c23)n1 ... < 5.00

Tell me the measured pIC50 of COC(=O)c1ccc2[nH]c3nc(Cc4ccccc4)nc(NCCCN4CCCCC4)c3c2c1 , please.
5.00 to 6.00

====

# PROCEDURE_SUMMARY: in vivo
# ASSAY_SETUP: female, mouse, po, 20 mg/kg
MEASURED_ENDPOINT: bioavailability (%)
Answer with a number only, understood to be in %.

Tell me the measured bioavailability of Cn1nnc(-c2ccc3c(c2)[nH]c2ncnc(NCCCN4CCCCC4)c23)n1 [UM681] , please.
39

====

As shown below, each of these molecules has a reported IC50 value.
# System: AML samples
# PROCEDURE_SUMMARY: Cell proliferation of cancerous samples from patients
# ASSAY_SETUP: read-out: Antineoplastic effect on cell proliferation, IC50, AML sample 13H150

COC(=O)c1ccc2[nH]c3nc(Cc4ccccc4)nc(NCCCN4CCCCC4)c3c2c1 [UM134] ... 1 to 10 µM

IC50 of Cn1nnc(-c2ccc3c(c2)[nH]c2ncnc(NCCCN4CCCCC4)c23)n1 [UM681] on AML samples?
1 to 10 µM

====

# PROCEDURE_SUMMARY: in vivo
# ASSAY_SETUP: mouse, po, 20 mg/kg
MEASURED_ENDPOINT: Cmax
Your answer should be a number followed by the unit of measure.

Tell me the measured Cmax of Cn1nnc(-c2ccc3c(c2)[nH]c2ncnc(NCCCN4CCCCC4)c23)n1 [UM681] , please.
200 nM

====

# PROCEDURE_SUMMARY: in vivo
# ASSAY_SETUP: mouse, iv, 1 mg/kg
MEASURED_ENDPOINT: half-life

Tell me the measured half-life of Cn1nnc(-c2ccc3c(c2)[nH]c2ncnc(NCCCN4CCCCC4)c23)n1 , please.
1.9 h

====

# Tested on: AML samples
# PROCEDURE_SUMMARY: Cell proliferation of cancerous samples from patients
# ASSAY_SETUP: read-out: Antineoplastic effect on cell proliferation, IC50, AML sample 12H058
MEASURED_ENDPOINT: IC50

COC(=O)c1ccc2[nH]c3nc(Cc4ccccc4)nc(NCCCN4CCCCC4)c3c2c1 ... 1 to 10 µM

Turning now to a further compound:
IC50 of Cn1nnc(-c2ccc3c(c2)[nH]c2ncnc(NCCCN4CCCCC4)c23)n1 on AML samples?
1 to 10 µM

====

# PROCEDURE_SUMMARY: in vivo
# ASSAY_SETUP: male, mouse, po, 20 mg/kg
MEASURED_ENDPOINT: bioavailability (%)
Answer with a number only, understood to be in %.

Tell me the measured bioavailability of Cn1nnc(-c2ccc3c(c2)[nH]c2ncnc(NCCCN4CCCCC4)c23)n1 [UM681] , please.
31
